- target desc: Human GPR119 (Homo sapiens)
- Construct: host or cells: HEK293 (ATCC)
- Sequence (Q8TDV5 whole entry): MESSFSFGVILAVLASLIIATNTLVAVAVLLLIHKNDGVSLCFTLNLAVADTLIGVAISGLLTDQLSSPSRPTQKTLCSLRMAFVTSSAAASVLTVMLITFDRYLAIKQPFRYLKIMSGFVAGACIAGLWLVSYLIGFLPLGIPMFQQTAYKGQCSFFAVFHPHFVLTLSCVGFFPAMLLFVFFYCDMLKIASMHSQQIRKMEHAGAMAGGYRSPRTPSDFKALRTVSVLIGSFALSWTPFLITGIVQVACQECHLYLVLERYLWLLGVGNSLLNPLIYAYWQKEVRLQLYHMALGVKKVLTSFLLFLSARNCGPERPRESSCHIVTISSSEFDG
- measurement description: Human GPR119 activation assay (cAMP, HTRF)
- Assay type: cell-based
- assay context: 1 h; 10 nM; HEK293 cells transiently expressing human GPR119; relative to maximum effect of OEA; read-out: hGPR119 activation ability (cAMP assay) Relative Response % vs OEA
# Lookup of reported Emax at 0.01 µM keyed by entry
Write down the numeric answer in % and omit the unit.

Here is how some molecules turned out for Emax at 0.01 µM.
CCc1cnc(N2CCC(CCCOc3cc(F)c(C4=NCCO4)c(F)c3)CC2)nc1; 116
CCCc1noc(N2CCC(CCCOc3cc(F)c(-c4nnc(C)o4)c(F)c3)CC2)n1; 295
CC(C)c1nnc(-c2c(F)cc(OCCCC3CCN(c4ncc(F)cn4)CC3)cc2F)s1; 228
CCc1cnc(N2CCC(CCCOc3cc(F)c(-c4noc(C[C@H](C)O)n4)c(F)c3)CC2)nc1; 336

// Emax at 0.01 µM value for "CC(C)c1noc(N2CCC(CCCOc3cc(F)c(C4=NC[C@H](C)O4)c(F)c3)CC2)n1" : 266

// Emax at 0.01 µM value for "CC(C)c1nc(-c2c(F)cc(OCCCC3CCN(c4ccc(C(F)(F)F)cn4)CC3)cc2F)no1" : 120

// Emax at 0.01 µM value for "CC(C)c1nnc(-c2c(F)cc(OCCCC3CCN(c4ncc(C(F)(F)F)cn4)CC3)cc2F)s1" : 179

// Emax at 0.01 µM value for "CCc1cnc(N2CCC(CCCOc3cc(F)c(-c4noc(C(C)(C)CO)n4)c(F)c3)CC2)nc1" : 178

// Emax at 0.01 µM value for "CC(C)c1noc(N2CCC(CCCOc3cc(F)c(-c4noc(C(C)C)n4)c(F)c3)CC2)n1" : 206

Sourced from patent US10428055B2
